- Tested on: Brassica napus L.
- PROCEDURE_DETAILS: Pre-emergence herbicidal inhibition assay, Petri dish test, BN
- Format: in vivo
- RUN_CONDITIONS: Brassica napus, 168 h, stalk, 7 days, read-out: EC50 BN Stalk
OUTCOME_MEASURE: EC50 (µg/mL)
Kindly answer with a numeric value in µg/mL, unit omitted.

Below are worked cases with known answers.
[
  {
    "COMPOUND": "CC(C)c1onc(O)c1CCP(=O)(O)O",
    "TARGET_OR_TEST_SYSTEM": "Brassica napus L.",
    "EC50 / µg/mL": 38.2
  },
  {
    "COMPOUND": "CCCc1n[nH]c(O)c1CC(P(=O)(O)O)P(=O)(O)O [Compound 12c]",
    "TARGET_OR_TEST_SYSTEM": "Brassica napus L.",
    "EC50 / µg/mL": 33.1
  },
  {
    "COMPOUND": "CC(C)c1n[nH]c(O)c1CCP(=O)(O)O",
    "TARGET_OR_TEST_SYSTEM": "Brassica napus L.",
    "EC50 / µg/mL": 96.9
  }
]

[in] Tell me measured EC50 for O=P(O)(O)C(Cc1c(C(F)F)n[nH]c1O)P(=O)(O)O [Compound 12f] please.
[out] 22.3

[in] Tell me measured EC50 for Cc1onc(C(F)(F)F)c1CC(P(=O)(O)O)P(=O)(O)O [Compound 13i] please.
[out] 33.5

* * *

Here the recorded melting point is given for each entry.

Below are worked cases with known answers.
[
  {
    "COMPOUND": "CCc1n[nH]c(CC)c1CCP(=O)(O)O [Compound 5f]",
    "OUTCOME_MEASURE": "melting point",
    "RECORDED_RESULT": "> 250 °C"
  },
  {
    "COMPOUND": "CCc1n[nH]c(O)c1CCP(=O)(O)O [Compound 5b]",
    "OUTCOME_MEASURE": "melting point",
    "RECORDED_RESULT": "217 to 218 °C"
  },
  {
    "COMPOUND": "Cc1n[nH]c(O)c1CCP(=O)(O)O [Compound 5a]",
    "OUTCOME_MEASURE": "melting point",
    "RECORDED_RESULT": "220 to 221 °C"
  },
  {
    "COMPOUND": "CC(C)c1n[nH]c(O)c1CCP(=O)(O)O [Compound 5d]",
    "OUTCOME_MEASURE": "melting point",
    "RECORDED_RESULT": "210 to 211 °C"
  },
  {
    "COMPOUND": "Cc1noc(C)c1CCP(=O)(O)O [Compound 6e]",
    "OUTCOME_MEASURE": "melting point",
    "RECORDED_RESULT": "> 250 °C"
  }
]

[in] Tell me measured melting point for O=P(O)(O)C(Cc1c(C(F)(F)F)n[nH]c1O)P(=O)(O)O [Compound 12e] please.
[out] 225 to 226 °C

[in] Tell me measured melting point for Cc1onc(C(F)(F)F)c1CC(P(=O)(O)O)P(=O)(O)O [Compound 13i] please.
[out] 240 to 241 °C

[in] Tell me measured melting point for Cc1n[nH]c(C)c1CCP(=O)(O)O [Compound 5e] please.
[out] > 250 °C

[in] Tell me measured melting point for CC1(C)CON(CCCP(=O)(O)O)C1=O [Compound 19] please.
[out] > 250 °C

[in] Tell me measured melting point for CCc1noc(CC)c1CCP(=O)(O)O [Compound 6f] please.
[out] > 250 °C

[in] Tell me measured melting point for CC(C)c1n[nH]c(O)c1CC(P(=O)(O)O)P(=O)(O)O [Compound 12d] please.
[out] > 250 °C
